# Assay Remarks: Guinea pig PK after transtympanic delivery (perilymph and cochlea, LC/MS/MS)
# Type: in vivo
# Experimental Context: male, Hartley, cochlea, other: transtympanic, 30 μL, Crystalline form (Example 5(c)), 30 μL transtympanic, Day 14, LLOQ = 0.08 μM, read-out: Cochlea Average concentration
Reported Endpoint: concentration at 14 day (µM)
Give bare numbers, in µM.

stdin: Which measured concentration at 14 day value corresponds to `CN1C(=O)[C@@H](NC(=O)[C@](C)(F)C(=O)NCC(F)(F)C(F)(F)F)c2ccccc2-c2ccccc21` ?
stdout: 222

###

# Assay Remarks: Guinea pig PK after transtympanic delivery (perilymph and cochlea, LC/MS/MS)
# Format: in vivo
# Experimental Context: male, Hartley, cochlea, other: transtympanic, 30 μL, Crystalline form (Example 5(c)), 30 μL transtympanic, Day 42, LLOQ = 0.08 μM, read-out: Cochlea Average concentration
Reported Endpoint: concentration at 42 day (nM)
Answers are plain numbers, in nM.

stdin: Quick check: concentration at 42 day of `CN1C(=O)[C@@H](NC(=O)[C@](C)(F)C(=O)NCC(F)(F)C(F)(F)F)c2ccccc2-c2ccccc21` ?
stdout: 600

Source listed as patent US10865188B2.
